# ASSAYED SYSTEM: T1, full-length human TIGIT on CHO-K1 cells (CHO-K1 human TIGIT) (human, UniProt Q495A1 22-244)
# T1 construct: NCBI XP_024309156.1; entry includes the signal peptide; also called high expression strain 1D2; medium expression strain 2D10
# T1 sequence: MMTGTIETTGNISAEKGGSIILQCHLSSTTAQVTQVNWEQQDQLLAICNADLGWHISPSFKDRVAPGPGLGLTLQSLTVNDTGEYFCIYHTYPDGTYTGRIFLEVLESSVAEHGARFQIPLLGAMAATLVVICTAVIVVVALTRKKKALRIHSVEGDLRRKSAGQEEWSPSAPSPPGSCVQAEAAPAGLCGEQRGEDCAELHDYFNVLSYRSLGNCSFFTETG
# TEST DESCRIPTION: FACS, medium expression strain
MEASURED QUANTITY: EC50

Illustrative cases are given below, each with its answer.
* TIGIT-CHI-070 (antibody, V domains shown, human-mouse chimeric antibody) VH: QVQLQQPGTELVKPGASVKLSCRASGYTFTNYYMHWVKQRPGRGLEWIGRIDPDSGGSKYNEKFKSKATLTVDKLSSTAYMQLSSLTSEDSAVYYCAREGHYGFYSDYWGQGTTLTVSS VL: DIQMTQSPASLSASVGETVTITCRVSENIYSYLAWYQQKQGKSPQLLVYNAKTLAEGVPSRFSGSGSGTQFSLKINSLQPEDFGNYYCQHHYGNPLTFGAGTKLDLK | 0.394 nM
* TIGIT-CHI-002 (antibody, V domains shown, human-mouse chimeric antibody) VH: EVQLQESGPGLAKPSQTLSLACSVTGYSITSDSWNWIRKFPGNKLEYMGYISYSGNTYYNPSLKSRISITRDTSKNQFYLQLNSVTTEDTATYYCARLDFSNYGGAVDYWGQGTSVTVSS VL: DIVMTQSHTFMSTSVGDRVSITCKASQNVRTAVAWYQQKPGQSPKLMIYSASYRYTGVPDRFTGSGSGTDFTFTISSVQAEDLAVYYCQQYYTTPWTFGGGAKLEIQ | 0.29 nM
* TIGIT-CHI-006 (antibody, V domains shown, human-mouse chimeric antibody) VH: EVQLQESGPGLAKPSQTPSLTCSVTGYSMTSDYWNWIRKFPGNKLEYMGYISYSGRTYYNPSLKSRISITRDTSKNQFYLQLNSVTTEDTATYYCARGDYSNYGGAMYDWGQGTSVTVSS VL: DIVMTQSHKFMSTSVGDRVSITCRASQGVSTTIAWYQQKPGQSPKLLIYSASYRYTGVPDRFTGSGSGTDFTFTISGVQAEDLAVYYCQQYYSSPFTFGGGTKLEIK | 0.481 nM

// next entry
Exam item: Supply recorded EC50 for TIGIT-CHI-005 (antibody, V domains shown, human-mouse chimeric antibody) VH: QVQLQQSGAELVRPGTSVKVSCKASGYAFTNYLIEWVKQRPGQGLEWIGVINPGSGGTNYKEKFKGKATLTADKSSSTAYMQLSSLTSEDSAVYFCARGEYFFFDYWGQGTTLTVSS VL: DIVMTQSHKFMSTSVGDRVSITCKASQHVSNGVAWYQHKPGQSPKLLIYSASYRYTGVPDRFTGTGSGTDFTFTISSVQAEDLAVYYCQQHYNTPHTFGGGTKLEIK here.
Marked response: 0.316 nM
